Test system: S. aureus RN450
Test: In Vitro Anti-Bacterial Activity Assay (MIC), gram positive
Assay type: cell-based
Details: Staphylococcus aureus, RN450, 18 h, MIC class, Table 3 (Continued); read-out: Gram+ activity
Measurement Name: MIC

CCC(=O)O[C@@H]1[C@H]2[C@H](N(C)C)C(O)=C(C(N)=O)C(=O)[C@@]2(O)C(O)=C2C(=O)c3c(O)cccc3C(C)[C@H]21 (stereo partly drawn) :: > 4 µg/mL
CC1c2ccc(-c3ccc4c(c3)OCO4)c(O)c2C(=O)C2=C(O)[C@]3(O)C(=O)C(C(N)=O)=C(O)[C@@H](N(C)C)[C@@H]3[C@@H](O)[C@@H]21 (stereo partly drawn) :: < 4 µg/mL

Here is another compound to look at.
For S. aureus RN450, provide MIC of CN(C)[C@@H]1C(O)=C(C(N)=O)C(=O)[C@@]2(O)C(O)=C3C(=O)c4c(O)ccc(-c5ccc(C(F)(F)F)cc5)c4C[C@H]3C[C@@H]12 please. < 4 µg/mL

----------
Tested on: E. coli mL308 225
Test: In Vitro Anti-Bacterial Activity Assay (MIC), gram negative
Type: cell-based
Conditions: Escherichia coli, ML308225, 18 h, gram negative bacteria; read-out: Antibiotic Activity Gram − (MIC)
Measurement Name: MIC

Known results for compounds:
CN(C)c1cc(NCC2CCCCC2)c(O)c2c1C[C@H]1C[C@H]3[C@H](N(C)C)C(O)=C(C(N)=O)C(=O)[C@@]3(O)C(O)=C1C2=O :: > 4 µg/mL
COc1cccc(CNCc2cc(N(C)C)c3c(c2O)C(=O)C2=C(O)[C@]4(O)C(=O)C(C(N)=O)=C(O)[C@@H](N(C)C)[C@@H]4C[C@@H]2C3)c1 :: > 4 µg/mL
CN(C)[C@@H]1C(O)=C(C(N)=O)C(=O)[C@@]2(O)C(O)=C3C(=O)c4c(O)ccc(-c5ccc(CNc6ccccc6)cc5)c4C[C@H]3C[C@@H]12 :: > 4 µg/mL
CC(CCO)NCc1cc(N(C)C)c2c(c1O)C(=O)C1=C(O)[C@]3(O)C(=O)C(C(N)=O)=C(O)[C@@H](N(C)C)[C@@H]3C[C@@H]1C2 (stereo partly drawn) :: > 4 µg/mL
COc1ccc(CNCCC#N)cc1-c1ccc(O)c2c1C[C@H]1C[C@H]3[C@H](N(C)C)C(O)=C(C(N)=O)C(=O)[C@@]3(O)C(O)=C1C2=O :: > 4 µg/mL
CN(C)[C@@H]1C(O)=C(C(N)=O)C(=O)[C@@]2(O)C(O)=C3C(=O)c4c(O)ccc(Cl)c4C=C3C[C@@H]12 :: < 4 µg/mL

Okay, here is my list. What is MIC for each of these?
1. CN(C)[C@@H]1C(O)=C(C(N)=O)C(=O)[C@@]2(O)C(O)=C3C(=O)c4c(ccc(CNCCC(F)(F)F)c4O)C[C@H]3C[C@@H]12
2. CN(C)c1cc(NCc2ccc(O)c(O)c2)c(O)c2c1C[C@H]1C[C@H]3[C@H](N(C)C)C(O)=C(C(N)=O)C(=O)[C@@]3(O)C(O)=C1C2=O
3. CN(C)c1cc(CNc2nc(-c3ccc(F)cc3)co2)c(O)c2c1C[C@H]1C[C@H]3[C@H](N(C)C)C(O)=C(C(N)=O)C(=O)[C@@]3(O)C(O)=C1C2=O
4. CN(C)[C@@H]1C(O)=C(C(N)=O)C(=O)[C@@]2(O)C(O)=C3C(=O)c4c(cccc4OCCCO)C[C@H]3C[C@@H]12
5. CN(C)c1cc(NCc2ccccc2OC(C)(C)C)c(O)c2c1C[C@H]1C[C@H]3[C@H](N(C)C)C(O)=C(C(N)=O)C(=O)[C@@]3(O)C(O)=C1C2=O
6. CN(C)c1cc(CN2CCC(=O)CC2)c(O)c2c1C[C@H]1C[C@H]3[C@H](N(C)C)C(O)=C(C(N)=O)C(=O)[C@@]3(O)C(O)=C1C2=O

1. < 4 µg/mL
2. > 4 µg/mL
3. > 4 µg/mL
4. > 4 µg/mL
5. > 4 µg/mL
6. > 4 µg/mL

----------
Test system: E. coli mL308 225
Experiment: In Vitro Anti-Bacterial Activity Assay (MIC), gram negative
Format: cell-based
Details: Escherichia coli, ML308225, 18 h, gram negative bacteria; read-out: Antibiotic Activity Gram − (MIC)
Hi there, I'd appreciate the recorded MIC for every entry that follows.

COc1ccc(-c2ccc(O)c3c2C[C@H]2C[C@H]4[C@H](N(C)C)C(O)=C(C(N)=O)C(=O)[C@@]4(O)C(O)=C2C3=O)cc1 [drawing 3425] :: < 4 µg/mL
CN(C)[C@@H]1C(O)=C(C(N)=O)C(=O)[C@@]2(O)C(O)=C3C(=O)c4c(O)ccc(Cl)c4C[C@H]3C[C@@H]12 :: < 4 µg/mL
CN(C)[C@@H]1C(O)=C(C(N)=O)C(=O)[C@@]2(O)C(O)=C3C(=O)c4c(O)c(S(=O)(=O)O)cc(Cl)c4C=C3C[C@@H]12 :: > 4 µg/mL
COCC(=O)Nc1ccc(-c2ccc(O)c3c2C[C@H]2C[C@H]4[C@H](N(C)C)C(O)=C(C(N)=O)C(=O)[C@@]4(O)C(O)=C2C3=O)cc1 :: < 4 µg/mL
CN(C)c1cc(CCC2(O)CCCC2)c(O)c2c1C[C@H]1C[C@H]3[C@H](N(C)C)C(O)=C(C(N)=O)C(=O)[C@@]3(O)C(O)=C1C2=O :: > 4 µg/mL

Could you now look at the following compound, please?
Look at this compound and give its reported MIC. Cc1ccc(-c2ccc(O)c3c2C[C@H]2C[C@H]4[C@H](N(C)C)C(O)=C(C(N)=O)C(=O)[C@@]4(O)C(O)=C2C3=O)nc1 < 4 µg/mL

----------
System: E. coli mL308 225
Assay: In Vitro Anti-Bacterial Activity Assay (MIC), gram negative
Format: cell-based
Conditions: Escherichia coli, ML308225, 18 h, gram negative bacteria; read-out: Antibiotic Activity Gram − (MIC)
Measurement Name: MIC

CN(C)c1cc(CNC(=O)Nc2ccc3c(c2)OCO3)c(O)c2c1C[C@H]1C[C@H]3[C@H](N(C)C)C(O)=C(C(N)=O)C(=O)[C@@]3(O)C(O)=C1C2=O :: > 4 µg/mL

Give MIC for each of the items listed below.
1. CC(CC(F)(F)F)N(C)Cc1cc(N(C)C)c2c(c1O)C(=O)C1=C(O)[C@]3(O)C(=O)C(C(N)=O)=C(O)[C@@H](N(C)C)[C@@H]3C[C@@H]1C2 (stereo partly drawn)
2. CNCc1cc(CNCC(C)(C)C)c2c(c1O)C(=O)C1=C(O)[C@]3(O)C(=O)C(C(N)=O)=C(O)[C@@H](N(C)C)[C@@H]3C[C@@H]1C2
3. CN(C)Cc1cc(N(C)C)c2c(c1O)C(=O)C1=C(O)[C@]3(O)C(=O)C(C(N)=O)=C(O)[C@@H](N(C)C)[C@@H]3C[C@@H]1C2
4. C[C@H]1c2ccc(CNCCC(F)(F)F)c(O)c2C(=O)C2=C(O)[C@]3(O)C(=O)C(C(N)=O)=C(O)[C@@H](N(C)C)[C@@H]3[C@@H](O)[C@@H]21
5. CCC(=O)Nc1ccc2c(c1O)C(=O)C1=C(O)[C@]3(O)C(=O)C(C(N)=O)=C(O)[C@@H](N(C)C)[C@@H]3C[C@@H]1C2

1. < 4 µg/mL
2. > 4 µg/mL
3. > 4 µg/mL
4. < 4 µg/mL
5. < 4 µg/mL

// batch mode: one MIC value per listed entry
1. CCCCCC(=O)c1ccc(O)c2c1C[C@H]1C[C@H]3[C@H](N(C)C)C(O)=C(C(N)=O)C(=O)[C@@]3(O)C(O)=C1C2=O
2. CN(C)c1cc(CNCC(=O)C(C)(C)C)c(O)c2c1C[C@H]1C[C@H]3[C@H](N(C)C)C(O)=C(C(N)=O)C(=O)[C@@]3(O)C(O)=C1C2=O
3. CN(C)[C@@H]1C(O)=C(C(N)=O)C(=O)[C@@]2(O)C(O)=C3C(=O)c4c(O)ccc(-c5ccncc5)c4C[C@H]3C[C@@H]12
4. CCCC(C)c1ccc(OC)c(-c2ccc(O)c3c2C[C@H]2C[C@H]4[C@H](N(C)C)C(O)=C(C(N)=O)C(=O)[C@@]4(O)C(O)=C2C3=O)c1 (stereo partly drawn)
5. CN(C)[C@@H]1C(O)=C(C(N)=O)C(=O)[C@@]2(O)C(O)=C3C(=O)c4c(O)ccc(-c5ncccn5)c4C[C@H]3C[C@@H]12

1. < 4 µg/mL
2. > 4 µg/mL
3. < 4 µg/mL
4. > 4 µg/mL
5. < 4 µg/mL

Which MIC is reported for this molecule? CN(C)[C@@H]1C(O)=C(C(N)=O)C(=O)[C@@]2(O)C(O)=C3C(=O)c4c(O)ccc(-c5cc6ccccc6o5)c4C[C@H]3C[C@@H]12 [drawing 3387] > 4 µg/mL
